TEST_SYSTEM: T1, cynomolgus monkey IL-6 (Macaca fascicularis, UniProt P79341)
T1 construct: His
T1 sequence (P79341 28-212): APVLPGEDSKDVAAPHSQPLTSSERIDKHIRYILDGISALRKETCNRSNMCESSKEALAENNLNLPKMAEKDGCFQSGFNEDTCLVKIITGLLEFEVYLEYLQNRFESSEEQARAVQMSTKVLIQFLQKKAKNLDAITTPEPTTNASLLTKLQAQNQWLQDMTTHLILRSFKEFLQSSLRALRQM
RUN_DESCRIPTION: Surface plasmon resonance (Biacore), cynomolgus monkey IL-6
Assay type: binding
SETTINGS: cy/cyno; periplasmic fractions, 28A6 chain-shuffled
MEASURED_QUANTITY: KA (M⁻¹)

molecule="55A11d: 28A6 chain-shuffled Fab, periplasmic fraction (antibody, V domains shown) VH: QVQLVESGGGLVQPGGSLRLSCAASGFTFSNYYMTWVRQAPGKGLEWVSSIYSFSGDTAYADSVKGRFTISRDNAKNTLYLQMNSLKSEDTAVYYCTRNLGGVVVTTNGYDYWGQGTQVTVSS VL: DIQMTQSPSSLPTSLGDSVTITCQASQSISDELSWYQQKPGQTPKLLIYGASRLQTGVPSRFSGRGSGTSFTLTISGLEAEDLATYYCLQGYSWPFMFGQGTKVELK" measured_quantity=KA numeric_value=1.77e+09
